- testedTarget: Methionine aminopeptidase 2 (Homo sapiens)
pIC50: −log10 of the molar value.

{"chemSmiles": "O=c1c2cn[nH]c2c2cnc(-c3ncccc3Cl)cc2n1CC(F)(F)F", "testedTarget": "Methionine aminopeptidase 2 (Homo sapiens)", "pIC50": 4.89}
